Source of measurements: ChEMBL document CHEMBL5329167

- Test system: Enterococcus faecalis
- Experiment Description: Antibacterial activity against Enterococcus faecalis OG1RF assessed as bacterial growth inhibition incubated for 16 hrs by CLSI based broth microdilution method
- Format: functional
Parameter Measured: MIC (µM)
One number for each entry, in µM.

Some entries whose results are on file:
# Structure, MIC / µM
records = [
    ("O=[N+]([O-])c1ccc(CS(=O)(=O)Oc2c(Br)cc(Br)c3nc4ccccc4nc23)cc1", 37.5),
    ("Oc1c(Br)cc(Br)c2nc3ccccc3nc12", 18.8),
    ("Cc1cccc2nc3c(OS(=O)(=O)Cc4ccc([N+](=O)[O-])cc4)c(Br)c(Cl)c(Br)c3nc12", 4.69),
    ("Oc1c(Br)cc(Br)c2nc3c(C(F)(F)F)cc(C(F)(F)F)cc3nc12", 0.1),
]

Now, please, on to the next molecule.
// query Identify MIC associated with the molecule O=[N+]([O-])c1ccc(CS(=O)(=O)Oc2c(Br)cc(Br)c3nc4cc(Cl)ccc4nc23)cc1
// result 4.69

----------
- Test system: Staphylococcus aureus
- Experiment Description: Antibacterial activity against Staphylococcus aureus clinical isolate 138 assessed as bacterial growth inhibition incubated for 16 hrs by CLSI based broth microdilution method
- Type: functional
Parameter Measured: MIC (µM)
Answers are plain numbers, in µM.

Some entries whose results are on file:
# Structure, Assayed System, MIC / µM
rows = [
    ("Cc1cccc2nc3c(O)c(Br)c(Cl)c(Br)c3nc12", "Staphylococcus aureus", 0.1),
    ("CN(C)[C@@H]1C(O)=C(C(N)=O)C(=O)[C@@]2(O)C(O)=C3C(=O)c4c(O)cccc4[C@@](C)(O)[C@H]3C[C@@H]12", "Staphylococcus aureus", 0.15),
]

Now, please, on to the next molecule.
// query Provide measured MIC on Staphylococcus aureus for O=[N+]([O-])c1ccc(CS(=O)(=O)Oc2c(Br)cc(Br)c3nc4ccccc4nc23)cc1 please.
// result 4.69

----------
Exercise: state measured MIC for each of the molecules provided.
- Test system: Staphylococcus epidermidis
- Experiment Description: Antibacterial activity against Staphylococcus epidermidis 12228 assessed as bacterial growth inhibition incubated for 16 hrs by CLSI based broth microdilution method
- Format: functional
Answers are plain numbers, in µM.

# Structure, MIC / µM
measured = [
    ("O=[N+]([O-])c1ccc(CS(=O)(=O)Oc2c(Br)cc(Br)c3nc4c(C(F)(F)F)cc(C(F)(F)F)cc4nc23)cc1", 0.15),
    ("Cc1cccc2nc3c(OS(=O)(=O)Cc4ccc([N+](=O)[O-])cc4)c(Br)c(Cl)c(Br)c3nc12", 0.59),
    ("O=[N+]([O-])c1ccc(CS(=O)(=O)Oc2c(Br)cc(Br)c3nc4ccccc4nc23)cc1", 4.69),
]

Batch request: MIC per item, same order as input.
1. Oc1c(Br)cc(Br)c2nc3ccccc3nc12
2. O=[N+]([O-])c1ccc(CS(=O)(=O)Oc2c(Br)cc(Br)c3nc4cc(Cl)ccc4nc23)cc1
3. O=S(=O)(Cc1ccccc1)Oc1c(Br)cc(Br)c2nc3c(C(F)(F)F)cc(C(F)(F)F)cc3nc12
4. O=S(=O)(Cc1ccccc1)Oc1c(Br)cc(Br)c2nc3cc(Cl)ccc3nc12
5. Cc1cccc2nc3c(O)c(Br)c(Cl)c(Br)c3nc12

// result
1. 2.35
2. 0.15
3. 0.15
4. 3.13
5. 0.1

----------
- Tested on: Enterococcus faecalis
- Experiment Description: Antibacterial activity against Enterococcus faecalis OG1RF assessed as bacterial growth inhibition incubated for 16 hrs by CLSI based broth microdilution method
- Assay type: functional
Parameter Measured: MIC

# Structure, Assayed System, MIC
data = [
    ("O=[N+]([O-])c1ccc(CS(=O)(=O)Oc2c(Br)cc(Br)c3nc4c(C(F)(F)F)cc(C(F)(F)F)cc4nc23)cc1", "Enterococcus faecalis", "0.78 µM"),
    ("O=S(=O)(Cc1ccccc1)Oc1c(Br)cc(Br)c2nc3c(C(F)(F)F)cc(C(F)(F)F)cc3nc12", "Enterococcus faecalis", "0.39 µM"),
    ("Cc1cccc2nc3c(OS(=O)(=O)Cc4ccccc4)c(Br)c(Cl)c(Br)c3nc12", "Enterococcus faecalis", "> 100 µM"),
    ("CN[C@H](CC(C)C)C(=O)N[C@H]1C(=O)N[C@@H](CC(N)=O)C(=O)N[C@H]2C(=O)N[C@H]3C(=O)N[C@H](C(=O)N[C@H](C(=O)O)c4cc(O)cc(O)c4-c4cc3ccc4O)[C@H](O)c3ccc(c(Cl)c3)Oc3cc2cc(c3O[C@@H]2O[C@H](CO)[C@@H](O)[C@H](O)[C@H]2O[C@H]2C[C@](C)(N)[C@H](O)[C@H](C)O2)Oc2ccc(cc2Cl)[C@H]1O", "Enterococcus faecalis", "1.56 µM"),
    ("Cc1cccc2nc3c(O)c(Br)c(Cl)c(Br)c3nc12", "Enterococcus faecalis", "0.39 µM"),
]

Now, please, on to the next compound.
// query Identify MIC associated with the compound O=S(=O)(Cc1ccccc1)Oc1c(Br)cc(Br)c2nc3cc(Cl)ccc3nc12
// result > 100 µM

----------
- Experiment Description: Hemolytic activity against red blood cells (unknown origin) at 200 uM
- Assay type: toxicity, cell-based, Erythrocyte
- Measurement Conditions: read-out: Activity
Exercise: state measured hemolysis at 200 µM for each of the compounds provided.

# Structure, hemolysis at 200 µM
data = [
    ("O=[N+]([O-])c1ccc(CS(=O)(=O)Oc2c(Br)cc(Br)c3nc4ccccc4nc23)cc1", "< 1%"),
    ("O=[N+]([O-])c1ccc(CS(=O)(=O)Oc2c(Br)cc(Br)c3nc4c(C(F)(F)F)cc(C(F)(F)F)cc4nc23)cc1", "10.4%"),
]

Batch request: hemolysis at 200 µM per item, same order as input.
1. Oc1c(Br)cc(Br)c2nc3cc(Cl)ccc3nc12
2. O=[N+]([O-])c1ccc(CS(=O)(=O)Oc2c(Br)cc(Br)c3nc4cc(Cl)ccc4nc23)cc1
3. Oc1c(Br)cc(Br)c2nc3ccccc3nc12
4. Cc1cccc2nc3c(OS(=O)(=O)Cc4ccc([N+](=O)[O-])cc4)c(Br)c(Cl)c(Br)c3nc12
5. Cc1cccc2nc3c(O)c(Br)c(Cl)c(Br)c3nc12
6. Oc1c(Br)cc(Br)c2nc3c(C(F)(F)F)cc(C(F)(F)F)cc3nc12

// result
1: < 1%; 2: < 1%; 3: < 1%; 4: < 1%; 5: < 1%; 6: 16.7%

// query Identify hemolysis at 200 µM associated with the compound CN[C@H](CC(C)C)C(=O)N[C@H]1C(=O)N[C@@H](CC(N)=O)C(=O)N[C@H]2C(=O)N[C@H]3C(=O)N[C@H](C(=O)N[C@H](C(=O)O)c4cc(O)cc(O)c4-c4cc3ccc4O)[C@H](O)c3ccc(c(Cl)c3)Oc3cc2cc(c3O[C@@H]2O[C@H](CO)[C@@H](O)[C@H](O)[C@H]2O[C@H]2C[C@](C)(N)[C@H](O)[C@H](C)O2)Oc2ccc(cc2Cl)[C@H]1O
// result < 1%

----------
- Test system: Staphylococcus aureus
- Experiment Description: Antibacterial activity against methicillin-resistant Staphylococcus aureus clinical isolate 1 assessed as bacterial growth inhibition incubated for 16 hrs by CLSI based broth microdilution method
- Format: functional
Parameter Measured: MIC (µM)
Give bare numbers, in µM.

Batch request: MIC per item, same order as input.
1. Oc1c(Br)cc(Br)c2nc3ccccc3nc12
2. O=[N+]([O-])c1ccc(CS(=O)(=O)Oc2c(Br)cc(Br)c3nc4ccccc4nc23)cc1
3. Cc1cccc2nc3c(OS(=O)(=O)Cc4ccc([N+](=O)[O-])cc4)c(Br)c(Cl)c(Br)c3nc12

// result
0.78
3.13
0.3

Batch request: MIC per item, same order as input.
1. COc1cccc(OC)c1C(=O)N[C@@H]1C(=O)N2[C@@H]1SC(C)(C)[C@@H]2C(=O)O
2. Cc1cccc2nc3c(O)c(Br)c(Cl)c(Br)c3nc12
3. CN(C)[C@@H]1C(O)=C(C(N)=O)C(=O)[C@@]2(O)C(O)=C3C(=O)c4c(O)cccc4[C@@](C)(O)[C@H]3C[C@@H]12
4. NC[C@H]1O[C@H](O[C@H]2[C@H](O)[C@@H](O[C@H]3O[C@H](CO)[C@@H](O)[C@H](N)[C@H]3O)[C@H](N)C[C@@H]2N)[C@H](N)C[C@@H]1O
5. CC[C@H]1OC(=O)[C@H](C)[C@@H](O[C@H]2C[C@@](C)(OC)[C@@H](O)[C@H](C)O2)[C@H](C)[C@@H](O[C@@H]2O[C@H](C)C[C@H](N(C)C)[C@H]2O)[C@](C)(O)C[C@@H](C)C(=O)[C@H](C)[C@@H](O)[C@]1(C)O

// result
37.5
0.1
0.1
6.25
100
